# Test: Pharmacokinetics of Compound A, phase I dose-escalation part (plasma)
# Assay type: in vivo, human
# Particulars: human, plasma, oral, 80 mg, C1D8, 80 mg BID (n = 3), geometric mean; read-out: C max, ss
Property: Cmax
# output: number + unit

Cmax for C=CCN1CC(=O)N2[C@@H](Cc3ccc(O)cc3F)C(=O)N(Cc3cccc(N4CC(N5CCN(CC)CC5)C4)n3)C[C@@H]2N1C(=O)NCc1ccccc1 [Compound A] is 737 ng/mL

###

# Test: Pharmacokinetics of Compound A, phase I dose-escalation part (plasma)
# Assay type: in vivo, human
# Particulars: human, plasma, oral, 15 mg, C1D1, 15 mg BID (n = 4), median
Property: Tmax (min)
# value in min; strip the unit string

Tmax for C=CCN1CC(=O)N2[C@@H](Cc3ccc(O)cc3F)C(=O)N(Cc3cccc(N4CC(N5CCN(CC)CC5)C4)n3)C[C@@H]2N1C(=O)NCc1ccccc1 is 45

###

# Test: Pharmacokinetics of Compound A, phase I dose-escalation part (plasma)
# Assay type: in vivo, human
# Particulars: human, plasma, oral, 20 mg, C1D8, 20 mg BID (n = 3), geometric mean; read-out: C max, ss
Property: Cmax (ng/mL)
# value in ng/mL; strip the unit string

Cmax for C=CCN1CC(=O)N2[C@@H](Cc3ccc(O)cc3F)C(=O)N(Cc3cccc(N4CC(N5CCN(CC)CC5)C4)n3)C[C@@H]2N1C(=O)NCc1ccccc1 is 278

###

# Test: Pharmacokinetics of Compound A, phase I dose-escalation part (plasma)
# Format: in vivo, human
# Particulars: human, plasma, oral, 100 mg, C1D8, 100 mg BID, based on 5 patients, geometric mean; read-out: AUC (0-tau), ss
# Experimental: In the treatment phase, Compound A (an oral formulation containing Compound A) is administered to the subjects of administration in one cycle of 28 days. […] In the dose-escalation part, blood was collected from the subjects of administration according to the schedule shown in Table 5, and the pharmacokinetics of Compound A was evaluated. […]
Property: AUC (ng·h/mL)
# value in ng·h/mL; strip the unit string

AUC for C=CCN1CC(=O)N2[C@@H](Cc3ccc(O)cc3F)C(=O)N(Cc3cccc(N4CC(N5CCN(CC)CC5)C4)n3)C[C@@H]2N1C(=O)NCc1ccccc1 is 2700

###

# Test: Pharmacokinetics of Compound A, phase I dose-escalation part (plasma)
# Format: in vivo, human
# Particulars: human, plasma, oral, 160 mg, C1D8, 160 mg BID (n = 2), both patients; read-out: Effective t1/2 (converted)
Property: half-life (h)
# value in h; strip the unit string

half-life for C=CCN1CC(=O)N2[C@@H](Cc3ccc(O)cc3F)C(=O)N(Cc3cccc(N4CC(N5CCN(CC)CC5)C4)n3)C[C@@H]2N1C(=O)NCc1ccccc1 is 17.5

###

# Test: Pharmacokinetics of Compound A, phase I dose-escalation part (plasma)
# Assay type: in vivo, human
# Particulars: human, plasma, oral, 120 mg, C1D1, 120 mg BID (n = 8, incl. additional cases), geometric mean; read-out: Cmax
Property: Cmax

Cmax for C=CCN1CC(=O)N2[C@@H](Cc3ccc(O)cc3F)C(=O)N(Cc3cccc(N4CC(N5CCN(CC)CC5)C4)n3)C[C@@H]2N1C(=O)NCc1ccccc1 [Compound A] is 557 ng/mL

###

# Test: Pharmacokinetics of Compound A, phase I dose-escalation part (plasma)
# Type: in vivo, human
# Particulars: human, plasma, oral, 80 mg, C1D1, 80 mg BID (n = 3), geometric mean; read-out: Cmax
Property: Cmax (ng/mL)
# value in ng/mL; strip the unit string

Cmax for C=CCN1CC(=O)N2[C@@H](Cc3ccc(O)cc3F)C(=O)N(Cc3cccc(N4CC(N5CCN(CC)CC5)C4)n3)C[C@@H]2N1C(=O)NCc1ccccc1 is 279

###

# Test: Pharmacokinetics of Compound A, phase I dose-escalation part (plasma)
# Type: in vivo, human
# Particulars: human, plasma, oral, 45 mg, C1D8, 45 mg BID (n = 4), median
Property: Tmax (h)
# value in h; strip the unit string

Tmax for C=CCN1CC(=O)N2[C@@H](Cc3ccc(O)cc3F)C(=O)N(Cc3cccc(N4CC(N5CCN(CC)CC5)C4)n3)C[C@@H]2N1C(=O)NCc1ccccc1 [Compound A] is 3

###

# Test: Pharmacokinetics of Compound A, phase I dose-escalation part (plasma)
# Type: in vivo, human
# Particulars: human, plasma, oral, 120 mg, C1D1, 120 mg BID (n = 3), geometric mean; read-out: Cmax
Property: Cmax (ng/mL)
# value in ng/mL; strip the unit string

Cmax for C=CCN1CC(=O)N2[C@@H](Cc3ccc(O)cc3F)C(=O)N(Cc3cccc(N4CC(N5CCN(CC)CC5)C4)n3)C[C@@H]2N1C(=O)NCc1ccccc1 is 557

###

# Test: Pharmacokinetics of Compound A, phase I dose-escalation part (plasma)
# Format: in vivo, human
# Particulars: human, plasma, oral, 45 mg, C1D1, 45 mg BID (n = 4), geometric mean; read-out: Cmax
Property: Cmax (ng/mL)
# value in ng/mL; strip the unit string

Cmax for C=CCN1CC(=O)N2[C@@H](Cc3ccc(O)cc3F)C(=O)N(Cc3cccc(N4CC(N5CCN(CC)CC5)C4)n3)C[C@@H]2N1C(=O)NCc1ccccc1 [Compound A] is 209

###

# Test: Pharmacokinetics of Compound A, phase I dose-escalation part (plasma)
# Type: in vivo, human
# Particulars: human, plasma, oral, 30 mg, C1D8, 30 mg BID (n = 3), median
Property: Tmax (h)
# value in h; strip the unit string

Tmax for C=CCN1CC(=O)N2[C@@H](Cc3ccc(O)cc3F)C(=O)N(Cc3cccc(N4CC(N5CCN(CC)CC5)C4)n3)C[C@@H]2N1C(=O)NCc1ccccc1 [Compound A] is 2

###

# Test: Pharmacokinetics of Compound A, phase I dose-escalation part (plasma)
# Assay type: in vivo, human
# Particulars: human, plasma, oral, 30 mg, C1D1, 30 mg BID (n = 3), geometric mean; read-out: AUC(0-12 h)
Property: AUC(0-t) (ng·h/mL)
# value in ng·h/mL; strip the unit string

AUC(0-t) for C=CCN1CC(=O)N2[C@@H](Cc3ccc(O)cc3F)C(=O)N(Cc3cccc(N4CC(N5CCN(CC)CC5)C4)n3)C[C@@H]2N1C(=O)NCc1ccccc1 is 349

###

# Test: Pharmacokinetics of Compound A, phase I dose-escalation part (plasma)
# Type: in vivo, human
# Particulars: human, plasma, oral, 160 mg, C1D1, 160 mg BID (n = 2), both patients
Property: Tmax (min)
# value in min; strip the unit string

Tmax for C=CCN1CC(=O)N2[C@@H](Cc3ccc(O)cc3F)C(=O)N(Cc3cccc(N4CC(N5CCN(CC)CC5)C4)n3)C[C@@H]2N1C(=O)NCc1ccccc1 [Compound A] is 30

###

# Test: Pharmacokinetics of Compound A, phase I dose-escalation part (plasma)
# Type: in vivo, human
# Particulars: human, plasma, oral, 20 mg, C1D1, 20 mg BID (n = 3), median
Property: Tmax (h)
# value in h; strip the unit string

Tmax for C=CCN1CC(=O)N2[C@@H](Cc3ccc(O)cc3F)C(=O)N(Cc3cccc(N4CC(N5CCN(CC)CC5)C4)n3)C[C@@H]2N1C(=O)NCc1ccccc1 is 1

###

# Test: Pharmacokinetics of Compound A, phase I dose-escalation part (plasma)
# Type: in vivo, human
# Particulars: human, plasma, oral, 120 mg, C1D1, 120 mg BID (n = 8, incl. additional cases), median
Property: Tmax
# output: number + unit

Tmax for C=CCN1CC(=O)N2[C@@H](Cc3ccc(O)cc3F)C(=O)N(Cc3cccc(N4CC(N5CCN(CC)CC5)C4)n3)C[C@@H]2N1C(=O)NCc1ccccc1 [Compound A] is 2 h

###

# Test: Pharmacokinetics of Compound A, phase I dose-escalation part (plasma)
# Type: in vivo, human
# Particulars: human, plasma, oral, 10 mg, C1D1, 10 mg BID (n = 3), geometric mean; read-out: Cmax
Property: Cmax (ng/mL)
# value in ng/mL; strip the unit string

Cmax for C=CCN1CC(=O)N2[C@@H](Cc3ccc(O)cc3F)C(=O)N(Cc3cccc(N4CC(N5CCN(CC)CC5)C4)n3)C[C@@H]2N1C(=O)NCc1ccccc1 is 37.2

###

# Test: Pharmacokinetics of Compound A, phase I dose-escalation part (plasma)
# Assay type: in vivo, human
# Particulars: human, plasma, oral, 10 mg, C1D8, 10 mg BID (n = 3), median
# Procedure: In the treatment phase, Compound A (an oral formulation containing Compound A) is administered to the subjects of administration in one cycle of 28 days. […] In the dose-escalation part, blood was collected from the subjects of administration according to the schedule shown in Table 5, and the pharmacokinetics of Compound A was evaluated. […]
Property: Tmax (h)
# value in h; strip the unit string

Tmax for C=CCN1CC(=O)N2[C@@H](Cc3ccc(O)cc3F)C(=O)N(Cc3cccc(N4CC(N5CCN(CC)CC5)C4)n3)C[C@@H]2N1C(=O)NCc1ccccc1 is 2

Source of measurements: patent US20250222003A1
